Sourced from ChEMBL document CHEMBL6096632

test system: SARS-CoV-2; experiment: Antiviral activity against SARS-CoV-2 expressing nucleocapsid protein infected in African green monkey Vero cells assessed as inhibition of viral growth by Hoechst 33342 staining based immunofluorescence analysis; type: functional, organism-based; settings: Severe acute respiratory syndrome coronavirus 2, Vero
outcomeMeasure: EC50

{"structureSmiles": "O=C(Nc1cc(Cl)cc(Cl)c1)c1n[nH]c2cc(Cl)ccc12", "outcomeMeasure": "EC50", "result": "> 25 µM"}
{"structureSmiles": "O=C(Nc1ccc(F)cc1)c1n[nH]c2ccc(Cl)cc12", "outcomeMeasure": "EC50", "result": "> 25 µM"}
{"structureSmiles": "O=C(Nc1cccc([N+](=O)[O-])c1)c1n[nH]c2ccc(Cl)cc12", "outcomeMeasure": "EC50", "result": "> 25 µM"}
{"structureSmiles": "Cc1cc(C)cc(NC(=O)c2n[nH]c3ccc(Cl)cc23)c1", "outcomeMeasure": "EC50", "result": "2.3 µM"}
{"structureSmiles": "O=C(Nc1cc(Cl)cc(Cl)c1)c1n[nH]c2ccc(Cl)cc12", "outcomeMeasure": "EC50", "result": "0.69 µM"}
{"structureSmiles": "N#Cc1cccc(NC(=O)c2n[nH]c3ccc(Cl)cc23)c1", "outcomeMeasure": "EC50", "result": "1.8 µM"}
{"structureSmiles": "O=C(Nc1cccc(OC(F)(F)F)c1)c1n[nH]c2ccc(Cl)cc12", "outcomeMeasure": "EC50", "result": "5.5 µM"}
{"structureSmiles": "N#Cc1ccccc1NC(=O)c1n[nH]c2ccc(Cl)cc12", "outcomeMeasure": "EC50", "result": "> 25 µM"}
{"structureSmiles": "Cc1cccc(NC(=O)c2n[nH]c3ccc(Cl)cc23)c1", "outcomeMeasure": "EC50", "result": "> 25 µM"}
{"structureSmiles": "CCCCNC(=O)c1n[nH]c2ccc(Cl)cc12", "outcomeMeasure": "EC50", "result": "> 25 µM"}
{"structureSmiles": "O=C(Nc1cc(Cl)cc(Cl)c1)c1n[nH]c2cc(F)ccc12", "outcomeMeasure": "EC50", "result": "1.2 µM"}

###

assay: Cytotoxicity against CHO-K1 cells incubated for 24 hrs by WST reagent based EZ-cytox assay; assay type: toxicity, cell-based, Cricetulus griseus; settings: chinese hamster

{"structureSmiles": "O=C(Nc1cc(Cl)cc(Cl)c1)c1n[nH]c2ccc(Cl)cc12", "CC50 at 24 h": "> 100 µM"}

###

target: CYP2C9 (Homo sapiens, UniProt P11712); experiment: Inhibition of CYP2C9 in human liver microsomes using tolbutamide as substrate at 10 uM preincubated for 5 mins followed by substrate and NADPH addition and measured after 20 mins by HPLC-MS/MS analysis; type: ADME, Microsome; conditions: probe tolbutamide, time 25 min
Sequence (P11712 whole entry): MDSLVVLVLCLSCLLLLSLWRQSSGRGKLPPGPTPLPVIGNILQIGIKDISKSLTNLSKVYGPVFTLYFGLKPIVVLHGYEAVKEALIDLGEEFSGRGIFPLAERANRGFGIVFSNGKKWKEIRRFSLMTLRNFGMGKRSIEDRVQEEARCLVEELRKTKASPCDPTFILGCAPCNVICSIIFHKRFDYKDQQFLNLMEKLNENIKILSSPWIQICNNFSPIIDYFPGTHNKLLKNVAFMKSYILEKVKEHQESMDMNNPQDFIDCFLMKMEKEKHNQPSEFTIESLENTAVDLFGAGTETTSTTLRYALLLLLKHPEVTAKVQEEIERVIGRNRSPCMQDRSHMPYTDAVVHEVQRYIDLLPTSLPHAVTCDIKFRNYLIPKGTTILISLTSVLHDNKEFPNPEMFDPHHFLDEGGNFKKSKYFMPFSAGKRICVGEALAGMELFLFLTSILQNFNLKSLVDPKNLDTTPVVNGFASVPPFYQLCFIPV
outcomeMeasure: inhibition at 20 min, 10 µM (%)

{"structureSmiles": "O=C(Nc1cc(Cl)cc(Cl)c1)c1n[nH]c2ccc(Cl)cc12", "outcomeMeasure": "inhibition at 20 min, 10 µM", "numericResult": 14}

###

test: Cytotoxicity against mouse NIH3T3 cells incubated for 24 hrs by WST reagent based EZ-cytox assay; format: toxicity, cell-based
outcomeMeasure: CC50 at 24 h

{"structureSmiles": "O=C(Nc1cc(Cl)cc(Cl)c1)c1n[nH]c2ccc(Cl)cc12", "outcomeMeasure": "CC50 at 24 h", "result": "> 100 µM"}

###

biological target: UniProtKB P33261; assay: Inhibition of CYP2C19 in human liver microsomes using S-mephenytoin as substrate at 10 uM preincubated for 5 mins followed by substrate and NADPH addition and measured after 20 mins by HPLC-MS/MS analysis; type: ADME, Microsome; conditions: probe S-mephenytoin, time 25 min
Sequence (P33261 whole entry): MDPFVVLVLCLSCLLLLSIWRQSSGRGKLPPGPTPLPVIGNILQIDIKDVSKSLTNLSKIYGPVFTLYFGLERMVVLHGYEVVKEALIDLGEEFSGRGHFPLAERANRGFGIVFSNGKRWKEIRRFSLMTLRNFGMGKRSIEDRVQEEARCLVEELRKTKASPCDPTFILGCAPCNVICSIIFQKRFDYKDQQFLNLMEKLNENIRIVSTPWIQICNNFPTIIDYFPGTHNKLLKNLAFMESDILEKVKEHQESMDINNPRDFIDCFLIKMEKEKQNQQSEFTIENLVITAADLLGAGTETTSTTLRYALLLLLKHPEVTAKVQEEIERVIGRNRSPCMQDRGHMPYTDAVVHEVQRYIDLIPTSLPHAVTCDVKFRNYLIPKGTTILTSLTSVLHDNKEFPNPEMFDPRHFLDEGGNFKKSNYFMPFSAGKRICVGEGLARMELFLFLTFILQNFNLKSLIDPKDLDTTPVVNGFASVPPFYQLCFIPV
outcomeMeasure: inhibition at 20 min, 10 µM (%)

{"structureSmiles": "O=C(Nc1cc(Cl)cc(Cl)c1)c1n[nH]c2ccc(Cl)cc12", "numericResult": 8}

###

Entries and their selectivity ratio values follow.
assay: Selectivity index, ratio of CC50 for African green monkey Vero cells to EC50 for antiviral activity against SARS-CoV-2 expressing nucleocapsid protein infected in African green monkey Vero cells; type: toxicity, cell-based; conditions: read-out: Ratio CC50/EC50
outcomeMeasure: selectivity ratio

{"structureSmiles": "N#Cc1cccc(NC(=O)c2n[nH]c3ccc(Cl)cc23)c1", "relationSign": ">", "numericResult": 13.7}
{"structureSmiles": "O=C(Nc1cccc(OC(F)(F)F)c1)c1n[nH]c2ccc(Cl)cc12", "relationSign": ">", "numericResult": 4.6}
{"structureSmiles": "O=C(Nc1ccccc1Cl)c1n[nH]c2ccc(Cl)cc12", "relationSign": "=", "numericResult": 1}
{"structureSmiles": "N#Cc1ccccc1NC(=O)c1n[nH]c2ccc(Cl)cc12", "relationSign": "=", "numericResult": 1}
{"structureSmiles": "O=C(Nc1ccccc1F)c1n[nH]c2ccc(Cl)cc12", "relationSign": "=", "numericResult": 1}
{"structureSmiles": "O=C(Nc1cc(Cl)cc(Cl)c1)c1n[nH]c2ccc(Cl)cc12", "relationSign": ">", "numericResult": 36}
{"structureSmiles": "CCCCNC(=O)c1n[nH]c2ccc(Cl)cc12", "relationSign": "=", "numericResult": 1}
{"structureSmiles": "O=C(Nc1cccc(C(F)(F)F)c1)c1n[nH]c2ccc(Cl)cc12", "relationSign": ">", "numericResult": 8.8}
{"structureSmiles": "O=C(Nc1cccc(F)c1)c1n[nH]c2ccc(Cl)cc12", "relationSign": "=", "numericResult": 1}
{"structureSmiles": "O=C(Nc1cc(Cl)cc(Cl)c1)c1n[nH]c2cc(Cl)ccc12", "relationSign": "=", "numericResult": 1}
{"structureSmiles": "O=C(Nc1cc(Cl)cc(Cl)c1)c1n[nH]c2ccc(F)cc12", "relationSign": "=", "numericResult": 1}

###

assay: Selectivity index, ratio of CC50 for African green monkey Vero cells to EC50 for antiviral activity against SARS-CoV-2 expressing nucleocapsid protein infected in African green monkey Vero cells; type: toxicity, cell-based; details: read-out: Ratio CC50/EC50
Entries and their selectivity ratio values follow.

{"structureSmiles": "O=C(NC1CCCCC1)c1n[nH]c2ccc(Cl)cc12", "relationSign": "=", "selectivity ratio": 1}
{"structureSmiles": "Cc1cc(C)cc(NC(=O)c2n[nH]c3ccc(Cl)cc23)c1", "relationSign": ">", "selectivity ratio": 11.1}
{"structureSmiles": "O=C(Nc1cc(Cl)cc(Cl)c1)c1n[nH]c2ccccc12", "relationSign": "=", "selectivity ratio": 1}
{"structureSmiles": "O=C(Nc1ccc(F)cc1)c1n[nH]c2ccc(Cl)cc12", "relationSign": "=", "selectivity ratio": 1}
{"structureSmiles": "O=C(Nc1ccc(Cl)cc1)c1n[nH]c2ccc(Cl)cc12", "relationSign": "=", "selectivity ratio": 1}
{"structureSmiles": "O=C(Nc1cccc([N+](=O)[O-])c1)c1n[nH]c2ccc(Cl)cc12", "relationSign": "=", "selectivity ratio": 1}

###

Entries and their EC50 values follow.
test system: SARS-CoV-2; assay: Antiviral activity against SARS-CoV-2 expressing nucleocapsid protein infected in African green monkey Vero cells assessed as inhibition of viral growth by Hoechst 33342 staining based immunofluorescence analysis; format: functional, organism-based; settings: Severe acute respiratory syndrome coronavirus 2, Vero

{"structureSmiles": "O=C(Nc1ccccc1F)c1n[nH]c2ccc(Cl)cc12", "EC50": "> 25 µM"}
{"structureSmiles": "O=C(Nc1cc(Cl)cc(Cl)c1)c1n[nH]c2ccc(F)cc12", "EC50": "> 25 µM"}
{"structureSmiles": "O=C(Nc1ccccc1Cl)c1n[nH]c2ccc(Cl)cc12", "EC50": "> 25 µM"}
